Biological target: Dihydrofolate reductase (Escherichia coli, UniProt P0ABQ4)
Sequence (P0ABQ4 whole entry): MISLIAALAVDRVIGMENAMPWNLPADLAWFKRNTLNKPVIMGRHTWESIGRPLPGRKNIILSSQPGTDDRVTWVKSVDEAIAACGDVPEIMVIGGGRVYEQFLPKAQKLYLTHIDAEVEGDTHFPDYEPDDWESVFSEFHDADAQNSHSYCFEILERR
Endpoint name: log10(Ki) (log10 of the value in µM)
Note the log scale: values are log10 of Ki expressed in µM.

| Compound | log10(Ki) |
| --- | --- |
| COc1ccc(CC2CN=C(N)N=C2N)cc1OCc1ccccc1 (stereo not given) | -1.66 |
| COCCc1c(OC)cc(CC2CN=C(N)N=C2N)cc1OC (stereo not given) | -2.35 |
| CC(=O)Nc1ccc(CC2CN=C(N)N=C2N)cc1[N+](=O)[O-] (stereo not given) | -0.97 |
| COCCOc1ccc(CC2CN=C(N)N=C2N)cc1OC (stereo not given) | -1.77 |
| NC1=NCC(Cc2ccc(OC(F)(F)F)cc2)C(N)=N1 (stereo not given) | -0.57 |

Return reported log10(Ki) for target or system Dihydrofolate reductase (Escherichia coli, UniProt P0ABQ4), item COc1cc(CC2CN=C(N)N=C2N)ccc1O (stereo not given) . -1.54

State measured log10(Ki) of the compound NC1=NCC(Cc2ccc(O)cc2)C(N)=N1 (stereo not given) with Dihydrofolate reductase (Escherichia coli, UniProt P0ABQ4). -0.45

Determine reported log10(Ki) for COc1cc(CC2CN=C(N)N=C2N)ccc1Cc1ccccc1 (stereo not given) ; test system: Dihydrofolate reductase (Escherichia coli, UniProt P0ABQ4). -1.53

State recorded log10(Ki) with Dihydrofolate reductase (Escherichia coli, UniProt P0ABQ4), entry NC1=NCC(Cc2ccc3c(c2)OCCO3)C(N)=N1 (stereo not given) , no comment. -1.13

State the measured log10(Ki) (Dihydrofolate reductase (Escherichia coli, UniProt P0ABQ4)) of NC1=NCC(Cc2cc(I)c(O)c(I)c2)C(N)=N1 (stereo not given) -2.82
